Where do the numbers come from? From the C3SDB collision cross section collection.

- settings: [M+Na]+; instrument: DT; stepped-field
Measured collision cross section (N2), listed per entry for reference.
value-type: collision cross section (N2) (Å²)

{"compound": "CC(=O)OP(=O)(O)O [Acetyl Phosphate]", "unit-annotation": "Å²", "obs-value": 125.44}
{"compound": "CC(C)[C@H](N)C(=O)O [L-Valine]", "unit-annotation": "Å²", "obs-value": 144.07}
{"compound": "COc1ccc(-c2cc(=O)c3c(OC)c(OC)c(OC)c(OC)c3o2)cc1 [Tangeritin]", "unit-annotation": "Å²", "obs-value": 208.15}
{"compound": "COC(=O)c1c(Cl)nn(C)c1S(=O)(=O)NC(=O)Nc1nc(OC)cc(OC)n1 [Halosulfuron-methyl]", "unit-annotation": "Å²", "obs-value": 201.41}
{"compound": "COc1ccc2c(c1)c(CC(=O)O)c(C)n2C(=O)c1ccc(Cl)cc1 [Indomethacin]", "unit-annotation": "Å²", "obs-value": 195.98}
{"compound": "O=P(O)(O)OC[C@H](O)CO [sn-Glycerol 3-phosphate]", "unit-annotation": "Å²", "obs-value": 142.16}
{"compound": "N[C@@H](CCC(=O)N[C@@H](CS)C(=O)NCC(=O)O)C(=O)O [Glutathione]", "unit-annotation": "Å²", "obs-value": 168.23}
{"compound": "N[C@@H](CCOC(=O)CCC(=O)O)C(=O)O [O-Succinyl-L-homoserine]", "unit-annotation": "Å²", "obs-value": 147.22}
{"compound": "OC[C@H]1O[C@H](OC[C@H]2OC(O)[C@H](O)[C@@H](O)[C@@H]2O)[C@H](O)[C@@H](O)[C@@H]1O (some centres not stated) [Isomaltose]", "unit-annotation": "Å²", "obs-value": 178.02}
{"compound": "O=C1O[C@H]([C@@H](O)CO)C(O)=C1O [L-Ascorbic Acid]", "unit-annotation": "Å²", "obs-value": 146.11}
{"compound": "Cc1ncc(CO)c(C(=O)O)c1O [4-Pyridoxate]", "unit-annotation": "Å²", "obs-value": 151.78}
{"compound": "CC/C=C\\C/C=C\\C/C=C\\C/C=C\\C/C=C\\C/C=C\\CCC(=O)O [Docosahexaenoic Acid]", "unit-annotation": "Å²", "obs-value": 185.06}
